Test: Binding affinity against bacterial 16S rRNA using mass spectrometry based assay
Design: species or system Escherichia coli
METRIC_NAME: pKd
Conceptually, pKd converts a concentration in mol/L into minus its log10.

>  <COMPOUND>
N[C@@H]1C[C@H](N)[C@@H](OC(=O)CCCC(=O)O[C@H]2[C@H](O)[C@@H](O)[C@H](N)C[C@@H]2N)[C@H](O)[C@H]1O

>  <NUMERIC_READOUT>
3.98

$$$$

Let us examine a further case.
Query: Fill blank: measured pKd of the compound CN(CCN(C)CC(O)CO[C@H]1[C@H](O)[C@@H](O)[C@H](N)C[C@@H]1N)CC(O)CO[C@H]1O[C@H](CO)[C@@H](O)[C@H](O)[C@H]1N (stereo partly specified) is ____.
Response: 3.47
